- tested.target: human Factor IXa (human, UniProt P00740 47-191; P00740 227-461)
- assay.protocol: cell-based or functional assay
Square brackets hold non-standard residues; d marks the D form. Ends that are not written are not given here.
Catalogue of EC50 [µM], FXa generation assay readings, one per entry.

binder	EC50 [µM], FXa generation assay
RRAPGKLTCLASYAWCFWTGIA-NH2 (cysteine pairing not given here) [RRAPGKLTCLASYAWCFWTGIA-CONH2]	> 20 µM
XLTCLASYCWLF (not fully specified; Orn 1) [Orn-LTCLASYCWLF]	< 0.5 µM
PRIRTVGSGSRSASGKLTCLASYCWLFWTGIA	< 0.5 µM
RRAPGKLTCLAS[dY]CWLFWTGIA (not fully specified (bridges); printed as RRAPGKLTCLASyCWLFWTGIA; cysteine pairing not given here) [RRAPGKLTCLASyCWLFWTGIA]	< 0.5 µM

Given the binder KLTCLXSYCWLF (not fully specified; Abu 6) [KLTCL-Abu-SYCWLF] , what is its reported EC50 [µM], FXa generation assay? > 1 µM
